assay: Biodistribution of 18F-labeled SST2 ligands in AR42J tumor-bearing mice; type: in vivo; details: female, CD1 nu/nu, mouse, muscle, iv, total radioactivity, 1 h post injection, tail vein; read-out: Muscle % ID/g ± SD
result_type: tissue uptake at 1 h (%ID/g)

* C[C@@H](O)[C@H](NC(=O)C1CSSCC(NC(=O)C(Cc2ccccc2)NC(=O)CNC(=O)CNC(=O)CNC(=O)C(CC(=O)O)NC(=O)[C@@H](CC(=O)O)NC(=O)C(CCCNC(N)=O)NC(=O)[C@@H](CNC(=O)C[N+](C)(C)Cc2ccc([Si](F)(C(C)(C)C)C(C)(C)C)cc2)NC(=O)CN2CCN(CC(=O)O)CCN(CC(=O)O)CCN(CC(=O)O)CC2)C(=O)N[C@@H](Cc2ccc(O)cc2)C(=O)NC(Cc2c[nH]c3ccccc23)C(=O)N[C@@H](CCCCN)C(=O)N[C@@H]([C@@H](C)O)C(=O)N1)C(=O)O (some centres unmarked) (natGa complex, metal not drawn) [[Ga]46] | 0.1
* C[C@@H](O)[C@H](NC(=O)C1CSSCC(NC(=O)C(Cc2ccccc2)NC(=O)CNC(=O)CNC(=O)[C@@H](CC(=O)O)NC(=O)C(CC(=O)O)NC(=O)[C@@H](CNC(=O)CN2CCN(CC(=O)O)CCN(CC(=O)O)CCN(CC(=O)O)CC2)NC(=O)C(CN)NC(=O)c2ccc([Si](F)(C(C)(C)C)C(C)(C)C)cc2)C(=O)N[C@@H](Cc2ccc(O)cc2)C(=O)NC(Cc2c[nH]c3ccccc23)C(=O)N[C@@H](CCCCN)C(=O)N[C@@H]([C@@H](C)O)C(=O)N1)C(=O)O (some centres unmarked) (natGa complex, metal not drawn) [[Ga]19] | 0.27
* C[C@@H](O)[C@H](NC(=O)C1CSSCC(NC(=O)C(Cc2ccccc2)NC(=O)CNC(=O)CNC(=O)CNC(=O)C(CC(=O)O)NC(=O)[C@@H](CC(=O)O)NC(=O)C(CNC(=O)CN2CCN(CC(=O)O)CCN(CC(=O)O)CCN(CC(=O)O)CC2)NC(=O)C[N+](C)(C)Cc2ccc([Si](F)(C(C)(C)C)C(C)(C)C)cc2)C(=O)N[C@@H](Cc2ccc(O)cc2)C(=O)NC(Cc2c[nH]c3ccccc23)C(=O)N[C@@H](CCCCN)C(=O)N[C@@H]([C@@H](C)O)C(=O)N1)C(=O)O (some centres unmarked) (natGa complex, metal not drawn) [[Ga]50] | 0.1
* C[C@@H](O)[C@H](NC(=O)C1CSSCC(NC(=O)C(Cc2ccccc2)NC(=O)CNC(=O)CNC(=O)CNC(=O)C(CC(=O)O)NC(=O)[C@@H](CC(=O)O)NC(=O)C(CCCCN)NC(=O)[C@@H](CNC(=O)C[N+](C)(C)Cc2ccc([Si](F)(C(C)(C)C)C(C)(C)C)cc2)NC(=O)CN2CCN(CC(=O)O)CCN(CC(=O)O)CCN(CC(=O)O)CC2)C(=O)N[C@@H](Cc2ccc(O)cc2)C(=O)NC(Cc2c[nH]c3ccccc23)C(=O)N[C@@H](CCCCN)C(=O)N[C@@H]([C@@H](C)O)C(=O)N1)C(=O)O (some centres unmarked) (natGa complex, metal not drawn) [[Ga]45] | 0.11
* C[C@@H](O)[C@H](NC(=O)C1CSSCC(NC(=O)C(Cc2ccccc2)NC(=O)CNC(=O)CNC(=O)[C@@H](CC(=O)O)NC(=O)C(CC(=O)O)NC(=O)[C@@H](CNC(=O)CN2CCN(CC(=O)O)CCN(CC(=O)O)CCN(CC(=O)O)CC2)NC(=O)C[N+](C)(C)Cc2ccc([Si](F)(C(C)(C)C)C(C)(C)C)cc2)C(=O)N[C@@H](Cc2ccc(O)cc2)C(=O)NC(Cc2c[nH]c3ccccc23)C(=O)N[C@@H](CCCCN)C(=O)N[C@@H]([C@@H](C)O)C(=O)N1)C(=O)O (some centres unmarked) (natGa complex, metal not drawn) [[Ga]24] | 0.09

* * *

biological target: SST2 (Homo sapiens, UniProt P30874)
Sequence (P30874 whole entry, species assumed): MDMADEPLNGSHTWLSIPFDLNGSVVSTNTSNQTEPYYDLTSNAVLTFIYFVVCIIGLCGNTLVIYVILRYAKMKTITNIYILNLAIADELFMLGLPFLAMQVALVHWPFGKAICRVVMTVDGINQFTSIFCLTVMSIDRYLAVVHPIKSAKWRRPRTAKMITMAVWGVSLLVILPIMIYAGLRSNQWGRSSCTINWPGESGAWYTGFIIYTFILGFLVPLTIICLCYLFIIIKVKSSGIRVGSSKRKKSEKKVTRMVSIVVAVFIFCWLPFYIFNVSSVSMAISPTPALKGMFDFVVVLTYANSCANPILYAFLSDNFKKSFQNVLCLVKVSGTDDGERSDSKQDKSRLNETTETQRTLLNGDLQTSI
pIC50: −log10 of the molar value.
result_type: pIC50

• C[C@@H](O)[C@H](NC(=O)C1CSSCC(NC(=O)C(Cc2ccccc2)NC(=O)CNC(=O)CNC(=O)[C@@H](CC(=O)O)NC(=O)C(CC(=O)O)NC(=O)[C@@H](CNC(=O)CC[C@H](C(=O)O)N2CCN(CC(=O)O)CCN(CC(=O)O)CCN(CC(=O)O)CC2)NC(=O)C(CN)NC(=O)c2ccc([Si](F)(C(C)(C)C)C(C)(C)C)cc2)C(=O)N[C@@H](Cc2ccc(O)cc2)C(=O)NC(Cc2c[nH]c3ccccc23)C(=O)N[C@@H](CCCCN)C(=O)N[C@@H]([C@@H](C)O)C(=O)N1)C(=O)O (some centres unmarked) (natGa complex, metal not drawn) [[Ga]20] = 7.90
• C[C@@H](O)[C@H](NC(=O)C1CSSCC(NC(=O)C(Cc2ccccc2)NC(=O)CNC(=O)CNC(=O)CNC(=O)C(CC(=O)O)NC(=O)[C@@H](CC(=O)O)NC(=O)C(CCC(=O)O)NC(=O)[C@@H](CNC(=O)C[N+](C)(C)Cc2ccc([Si](F)(C(C)(C)C)C(C)(C)C)cc2)NC(=O)CN2CCN(CC(=O)O)CCN(CC(=O)O)CCN(CC(=O)O)CC2)C(=O)N[C@@H](Cc2ccc(O)cc2)C(=O)NC(Cc2c[nH]c3ccccc23)C(=O)N[C@@H](CCCCN)C(=O)N[C@@H]([C@@H](C)O)C(=O)N1)C(=O)O (some centres unmarked) (natLu complex, metal not drawn) [[Lu]47] = 8.29
• C[C@@H](O)[C@H](NC(=O)C1CSSCC(NC(=O)C(Cc2ccccc2)NC(=O)CNC(=O)CNC(=O)CNC(=O)C(CC(=O)O)NC(=O)[C@@H](CC(=O)O)NC(=O)C(CNC(=O)CN2CCN(CC(=O)O)CCN(CC(=O)O)CCN(CC(=O)O)CC2)NC(=O)[C@@H](CN)NC(=O)CNC(=O)CNC(=O)C[N+](C)(C)Cc2ccc([Si](F)(C(C)(C)C)C(C)(C)C)cc2)C(=O)N[C@@H](Cc2ccc(O)cc2)C(=O)NC(Cc2c[nH]c3ccccc23)C(=O)N[C@@H](CCCCN)C(=O)N[C@@H]([C@@H](C)O)C(=O)N1)C(=O)O (some centres unmarked) (natGa complex, metal not drawn) [[Ga]53] = 8.47
• C[C@@H](O)[C@H](NC(=O)C1CSSCC(NC(=O)C(Cc2ccccc2)NC(=O)CNC(=O)CNC(=O)CNC(=O)C(CC(=O)O)NC(=O)[C@@H](CC(=O)O)NC(=O)C(CNC(=O)CN2CCN(CC(=O)O)CCN(CC(=O)O)CCN(CC(=O)O)CC2)NC(=O)[C@@H](CN)NC(=O)C[N+](C)(C)Cc2ccc([Si](F)(C(C)(C)C)C(C)(C)C)cc2)C(=O)N[C@@H](Cc2ccc(O)cc2)C(=O)NC(Cc2c[nH]c3ccccc23)C(=O)N[C@@H](CCCCN)C(=O)N[C@@H]([C@@H](C)O)C(=O)N1)C(=O)O (some centres unmarked) (natLu complex, metal not drawn) [[Lu]51] = 8.51
• C[C@@H](O)[C@H](NC(=O)C1CSSCC(NC(=O)C(Cc2ccccc2)NC(=O)CNC(=O)CNC(=O)CNC(=O)C(CC(=O)O)NC(=O)[C@@H](CC(=O)O)NC(=O)C(CNC(=O)CN2CCN(CC(=O)O)CCN(CC(=O)O)CCN(CC(=O)O)CC2)NC(=O)[C@@H](CN)NC(=O)c2ccc([Si](F)(C(C)(C)C)C(C)(C)C)cc2)C(=O)N[C@@H](Cc2ccc(O)cc2)C(=O)NC(Cc2c[nH]c3ccccc23)C(=O)N[C@@H](CCCCN)C(=O)N[C@@H]([C@@H](C)O)C(=O)N1)C(=O)O (some centres unmarked) (natGa complex, metal not drawn) [[Ga]40] = 8.44

* * *

Experiment: Octanol-water distribution coefficient (logD pH 7.4) of the labeled tracer
Type: physicochemical
Settings: n-octanol/PBS pH 7.4, room temperature
Experimental: Approximately 1 MBq of the labeled tracer was dissolved in 1 mL of a 1:1 mixture (by volumes) of phosphate buffered saline (PBS, pH 7.4) and n-octanol in an Eppendorf tube. After vigorous mixing of the suspension for 3 minutes at room temperature, the vial was centrifuged at 15000 g for 5 minutes (Biofuge 15, Heraus Sepatech, Osterode, Germany) and 100 μL aliquots of both layers were measured in a gamma counter. The experiment was repeated at least six times.
result_type: LogDpH=7.4

* C[C@@H](O)[C@H](NC(=O)C1CSSCC(NC(=O)C(Cc2ccccc2)NC(=O)CNC(=O)CNC(=O)CNC(=O)C(CC(=O)O)NC(=O)[C@@H](CC(=O)O)NC(=O)C(CNC(=O)CN2CCN(CC(=O)O)CCN(CC(=O)O)CCN(CC(=O)O)CC2)NC(=O)C[N+](C)(C)Cc2ccc([Si](F)(C(C)(C)C)C(C)(C)C)cc2)C(=O)N[C@@H](Cc2ccc(O)cc2)C(=O)NC(Cc2c[nH]c3ccccc23)C(=O)N[C@@H](CCCCN)C(=O)N[C@@H]([C@@H](C)O)C(=O)N1)C(=O)O (stereo partly shown) [[Lu]50] | −1.79
